// data source = patent US20150072968A1

Assay: Pharmacokinetics of ceftolozane/tazobactam in healthy volunteers
Type: in vivo, human
Conditions: human, urine and plasma, intravenous; after a single dose of CXA-201; read-out: renal clearance
Readout Label: CL renal

INSERT INTO assay_data (compound, readout_label, observed) VALUES
  ('Cn1c(N)c(NC(=O)NCCN)c[n+]1CC1=C(C(=O)[O-])N2C(=O)[C@@H](NC(=O)/C(=N\OC(C)(C)C(=O)O)c3nsc(N)n3)[C@H]2SC1 [Ceftolozane]', 'CL renal', '56.8 to 112 mL/min');

====

Test: Phase 1 single dose PK of 750 mg ceftolozane/tazobactam in severe renal impairment and ESRD on hemodialysis (Example 8)
Assay type: in vivo, human
Details: both sexes, human, plasma, iv, 750 mg, severe renal impairment; single IV 1-hour infusion of 750 mg ceftolozane/tazobactam; read-out: AUC∞, Mean (CV %)
Method: This was a Phase 1, multicenter, prospective, open-label study of 750 mg ceftolozane/tazobactam (as CXA-201) administered IV in male and female adult subjects with severe renal impairment (estimated CLCR<30 mL/min) and subjects with end-stage renal disease (ESRD) on hemodialysis (HD). […]
# reported AUC(0-inf); entries follow
Readout Label: AUC(0-inf) (µg·h/mL)

INSERT INTO results (line_notation, readout_label, observed) VALUES
  ('C[C@]1(Cn2ccnn2)[C@H](C(=O)O)N2C(=O)C[C@H]2S1(=O)=O', 'AUC(0-inf)', 52.4),
  ('Cn1c(N)c(NC(=O)NCCN)c[n+]1CC1=C(C(=O)[O-])N2C(=O)[C@@H](NC(=O)/C(=N\OC(C)(C)C(=O)O)c3nsc(N)n3)[C@H]2SC1', 'AUC(0-inf)', 537);

====

Listed below: Vd values for each entry.
Experiment: clinical
Settings: human, in vivo
Readout Label: Vd (L)

INSERT INTO assay_data (molecule, observed) VALUES
  ('Cn1c(N)c(NC(=O)NCCN)c[n+]1CC1=C(C(=O)[O-])N2C(=O)[C@@H](NC(=O)/C(=N\OC(C)(C)C(=O)O)c3nsc(N)n3)[C@H]2SC1 [Ceftolozane]', 6),
  ('C[C@]1(Cn2ccnn2)[C@H](C(=O)O)N2C(=O)C[C@H]2S1(=O)=O [Tazobactam]', 11);

====

Test: Phase 1 single dose PK of 750 mg ceftolozane/tazobactam in severe renal impairment and ESRD on hemodialysis (Example 8)
Assay type: in vivo, human
Conditions: both sexes, human, plasma, iv, 750 mg, ESRD on HD; Day 1 IV infusion of 750 mg (non-hemodialysis phase); read-out: t1/2, Mean (CV %) (converted)
Measured half-life, listed per entry for reference.
Readout Label: half-life (h)

INSERT INTO results (compound, readout_label, unit_tag, observed) VALUES
  ('Cn1c(N)c(NC(=O)NCCN)c[n+]1CC1=C(C(=O)[O-])N2C(=O)[C@@H](NC(=O)/C(=N\OC(C)(C)C(=O)O)c3nsc(N)n3)[C@H]2SC1 [Ceftolozane]', 'half-life', 'h', 39.8),
  ('C[C@]1(Cn2ccnn2)[C@H](C(=O)O)N2C(=O)C[C@H]2S1(=O)=O [Tazobactam]', 'half-life', 'h', 5.23);

====

Assay: Population pharmacokinetic analysis of 10 clinical studies (Example 7)
Format: in vivo, human
Conditions: human, plasma, intravenous; patients with cIAI; at CrCL=109 mL/min; read-out: CL (converted)
Readout Label: clearance

INSERT INTO assay_data (line_notation, readout_label, observed) VALUES
  ('Cn1c(N)c(NC(=O)NCCN)c[n+]1CC1=C(C(=O)[O-])N2C(=O)[C@@H](NC(=O)/C(=N\OC(C)(C)C(=O)O)c3nsc(N)n3)[C@H]2SC1', 'clearance', '104 mL/min');

====

Assay: Phase I PK studies in subjects with varying degrees of renal function (Example 11)
Format: in vivo, human
Conditions: both sexes, human, dialysate and plasma, intravenous; ESRD on HD; read-out: median dialysis clearance (CLD) (converted)
Readout Label: clearance (mL/min)

INSERT INTO assay_data (line_notation, unit_tag, observed) VALUES
  ('Cn1c(N)c(NC(=O)NCCN)c[n+]1CC1=C(C(=O)[O-])N2C(=O)[C@@H](NC(=O)/C(=N\OC(C)(C)C(=O)O)c3nsc(N)n3)[C@H]2SC1', 'mL/min', 95.8),
  ('C[C@]1(Cn2ccnn2)[C@H](C(=O)O)N2C(=O)C[C@H]2S1(=O)=O', 'mL/min', 73.2);

====

Experiment: Phase 1 single dose PK of 750 mg ceftolozane/tazobactam in severe renal impairment and ESRD on hemodialysis (Example 8)
Format: in vivo, human
Details: both sexes, human, plasma, iv, 750 mg, ESRD on HD; second IV infusion of 750 mg on Day 4 (during HD); read-out: t1/2, Mean (CV %) (converted)
Measured half-life, listed per entry for reference.
Readout Label: half-life (h)

INSERT INTO measurements (compound, unit_tag, observed) VALUES
  ('Cn1c(N)c(NC(=O)NCCN)c[n+]1CC1=C(C(=O)[O-])N2C(=O)[C@@H](NC(=O)/C(=N\OC(C)(C)C(=O)O)c3nsc(N)n3)[C@H]2SC1 [Ceftolozane]', 'h', 43.5),
  ('C[C@]1(Cn2ccnn2)[C@H](C(=O)O)N2C(=O)C[C@H]2S1(=O)=O [Tazobactam]', 'h', 5.2);

====

Below, each of the molecules is paired with its reported half-life value.
Assay: Phase 1 single dose PK of 750 mg ceftolozane/tazobactam in severe renal impairment and ESRD on hemodialysis (Example 8)
Assay type: in vivo, human
Conditions: both sexes, human, plasma, iv, 750 mg, severe renal impairment; single IV 1-hour infusion of 750 mg ceftolozane/tazobactam; read-out: t1/2, Mean (CV %) (converted)
Readout Label: half-life

INSERT INTO assay_data (molecule, observed) VALUES
  ('C[C@]1(Cn2ccnn2)[C@H](C(=O)O)N2C(=O)C[C@H]2S1(=O)=O [Tazobactam]', '2.6 h'),
  ('Cn1c(N)c(NC(=O)NCCN)c[n+]1CC1=C(C(=O)[O-])N2C(=O)[C@@H](NC(=O)/C(=N\OC(C)(C)C(=O)O)c3nsc(N)n3)[C@H]2SC1 [Ceftolozane]', '11.1 h');

====

# reported half-life; entries follow
Assay: Phase I PK studies in subjects with varying degrees of renal function (Example 11)
Type: in vivo, human
Conditions: both sexes, human, plasma, intravenous; ESRD on HD; read-out: t1/2 during the HD period (converted)
Readout Label: half-life (h)

INSERT INTO assay_data (compound, observed) VALUES
  ('C[C@]1(Cn2ccnn2)[C@H](C(=O)O)N2C(=O)C[C@H]2S1(=O)=O [Tazobactam]', 0.91),
  ('Cn1c(N)c(NC(=O)NCCN)c[n+]1CC1=C(C(=O)[O-])N2C(=O)[C@@H](NC(=O)/C(=N\OC(C)(C)C(=O)O)c3nsc(N)n3)[C@H]2SC1 [Ceftolozane]', 1.13);

====

Overview of recorded half-life for various compounds
Assay: Phase 1 single dose PK of 750 mg ceftolozane/tazobactam in severe renal impairment and ESRD on hemodialysis (Example 8)
Type: in vivo, human
Settings: both sexes, human, plasma, intravenous, 750 mg, ESRD on HD; second infusion Day 4; start of infusion to end of dialysis; read-out: t1/2, Mean (CV %) (converted)
Readout Label: half-life (h)

INSERT INTO measurements (line_notation, readout_label, unit_tag, observed) VALUES
  ('Cn1c(N)c(NC(=O)NCCN)c[n+]1CC1=C(C(=O)[O-])N2C(=O)[C@@H](NC(=O)/C(=N\OC(C)(C)C(=O)O)c3nsc(N)n3)[C@H]2SC1', 'half-life', 'h', 1.25),
  ('C[C@]1(Cn2ccnn2)[C@H](C(=O)O)N2C(=O)C[C@H]2S1(=O)=O', 'half-life', 'h', 0.98);

====

Assay: Phase 1 single dose PK of 750 mg ceftolozane/tazobactam in severe renal impairment and ESRD on hemodialysis (Example 8)
Format: in vivo, human
Conditions: both sexes, human, plasma, intravenous, 750 mg, ESRD on HD; second infusion Day 4; start of infusion to end of dialysis; read-out: tmax, Median (minimum, maximum)
Readout Label: Tmax (h)

INSERT INTO results (line_notation, readout_label, unit_tag, observed) VALUES
  ('Cn1c(N)c(NC(=O)NCCN)c[n+]1CC1=C(C(=O)[O-])N2C(=O)[C@@H](NC(=O)/C(=N\OC(C)(C)C(=O)O)c3nsc(N)n3)[C@H]2SC1', 'Tmax', 'h', 1),
  ('C[C@]1(Cn2ccnn2)[C@H](C(=O)O)N2C(=O)C[C@H]2S1(=O)=O', 'Tmax', 'h', 1);

====

Assay: Pharmacokinetics of ceftolozane/tazobactam in healthy volunteers
Assay type: in vivo, human
Settings: human, plasma, intravenous; after a single dose of CXA-201; read-out: plasma CL
Readout Label: clearance

INSERT INTO assay_data (line_notation, observed) VALUES
  ('Cn1c(N)c(NC(=O)NCCN)c[n+]1CC1=C(C(=O)[O-])N2C(=O)[C@@H](NC(=O)/C(=N\OC(C)(C)C(=O)O)c3nsc(N)n3)[C@H]2SC1', '68.3 to 112 mL/min');
